Target: T1, human CD137 displayed on yeast cells (human, UniProt Q07011 24-186, limits assumed)
T1 construct: Yeast cells displaying human CD137 on their surface; also called human CD137 on the cell surface
Assay: flow cytometry on yeast cells displaying human CD137, PE anti-human Fc
Procedure: The masking efficiency was then measured through flow cytometry. Briefly, yeast cells displaying human CD137 on their surface washed twice with PBSA buffer, and 50 μL (1×10\hat{ }6) cells were dispensed into each well of a 96 well plate. Cells were then incubated with 3-fold serial dilutions of antibodies for 1 hour on ice, washed once with PBSA buffer, and then incubated with 100 μL of PE conjugated mouse anti-human Fc (1 μg/ml) for 30 minutes on ice. […]
QUANTITY_MEASURED: masking efficiency (against parental TY21242)

Data request: Would you kindly share the measured masking efficiency (against parental TY21242) for TY22594 (antibody, V domains shown, Full IgG4 from mammalian cells; peptide fused to the N-terminus of the light chain of TY21242) VH: EVQLVESGGGLVQPGGSLRLSCAASGFSLSTGGVGVGWIRQAPGKGLEWLALIDWADDKYYSPSLKSRLTISRDNSKNTLYLQLNSLRAEDTAVYYCARGGSDTVIGDWFAYWGQGTLVTVSS VL: EVGSYDTDYDFCPILRHRCDSSGRSAGGGGSPLGLAGSGGSDIQLTQSPSSLSASVGDRVTITCRASQSIGSYLAWYQQKPGKAPKLLIYDASNLETGVPSRFSGSGSGTDFTLTISSLQPEDFATYYCQQGYYLWTFGQGTKVEIK ?
Data returned: 83.7 fold

From: patent US20210207126A1
